Listing: Log10GI50 of selected compounds
system: NCI-H522; type: cell-based, human
endpoint name: Log10GI50

> print(dat)
                                   compound  endpoint.result
1  COc1cc(C)c(-c2ccc(=O)c(OC)cc2C)c(OC)c1OC (single isomer, unassigned) [(aS)-iso-6]      -4.69 Molar
2  COc1cc(C)c(-c2ccc(=O)c(OC)cc2C)c(OC)c1OC (single isomer, unassigned) [(aR)-iso-6]    > -4.00 Molar
3  COc1cc(C)c(-c2ccc(OC)c(=O)cc2C)c(OC)c1OC (single isomer, unassigned) [(aS)-6]    > -4.00 Molar
4  COc1cc(C)c(-c2ccc(OC)c(=O)cc2C)c(OC)c1OC (single isomer, unassigned) [(aR)-6]      -5.73 Molar
